Experimental endpoint: melting point

Look over these answered cases.
molecule=COc1ccc(N(Cc2ccc(F)cc2)Cc2nc(-c3ccc([N+](=O)[O-])cc3)cs2)cc1OC data_value="111 to 112.8 °C"
molecule=COc1ccc(N(Cc2ccc(F)cc2)Cc2nc(-c3ccc(N4CCOCC4)cc3)cs2)cc1OC data_value="139 to 140.4 °C"
molecule=COc1ccc(N(Cc2ccc(F)cc2)Cc2nc(-c3ccc(NC(C)=O)cc3)cs2)cc1OC data_value="134.6 to 137 °C"

Return reported melting point; argument: O=[N+]([O-])c1ccc(-c2csc(CN(Cc3ccc(F)cc3)c3cccc(C(F)(F)F)c3)n2)cc1 107 to 108.4 °C

COc1ccc(-c2csc(CN(Cc3ccc(F)cc3)c3ccc(OC)c(OC)c3)n2)cc1 , same question. 76.3 to 79 °C

COc1ccc(N(Cc2ccc(F)cc2)Cc2nc(-c3ccc(-c4c(C)noc4C)cc3)cs2)cc1OC , same question. 69 to 69.8 °C

O=[N+]([O-])c1ccc(-c2csc(CN(Cc3ccc(F)cc3)c3ccc(-c4ccccc4)cc3)n2)cc1 , same question. 164.5 to 166.2 °C

O=[N+]([O-])c1ccc(-c2csc(CN(Cc3ccc(F)cc3)c3cccc(-c4ccccc4)c3)n2)cc1 , same question. 149.5 to 150.8 °C

COc1ccc(N(Cc2ccc(F)cc2)Cc2nc(-c3ccc(-c4cccs4)cc3)cs2)cc1OC , same question. 115.8 to 119 °C

COc1ccc(N(Cc2ccc(F)cc2)Cc2nc(-c3ccc(-c4ccnn4C)cc3)cs2)cc1OC , same question. 102.4 to 103.3 °C

COc1ccc(N(Cc2ccc(F)cc2)Cc2nc(-c3ccc(-c4cnn(C)c4)cc3)cs2)cc1OC , same question. 126.1 to 130.3 °C

---

Target: recombinant CETP (Homo sapiens, UniProt P11597)
Construct: purchased Roar, New York, NY, USA RB-RPAK
Sequence (P11597 18-493): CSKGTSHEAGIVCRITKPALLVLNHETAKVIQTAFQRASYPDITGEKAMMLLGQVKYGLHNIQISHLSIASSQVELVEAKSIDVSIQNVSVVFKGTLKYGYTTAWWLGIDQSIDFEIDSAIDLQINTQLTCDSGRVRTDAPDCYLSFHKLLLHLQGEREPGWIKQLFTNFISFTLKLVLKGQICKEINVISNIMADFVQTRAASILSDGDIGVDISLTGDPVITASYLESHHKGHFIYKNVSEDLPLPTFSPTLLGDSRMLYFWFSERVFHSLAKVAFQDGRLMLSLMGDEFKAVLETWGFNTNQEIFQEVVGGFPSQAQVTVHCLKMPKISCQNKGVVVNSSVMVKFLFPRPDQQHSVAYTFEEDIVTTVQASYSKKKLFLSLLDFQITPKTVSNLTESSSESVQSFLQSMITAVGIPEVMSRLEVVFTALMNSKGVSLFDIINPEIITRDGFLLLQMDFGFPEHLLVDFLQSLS
Assay: In vitro CETP inhibitory assay (BODIPY-CE fluorescence assay, CETP RP Activity Assay Kit)
Format: biochemical
Settings: CETP inhibition, eight-point titration, each concentration tested three times
Experimental endpoint: IC50 (µM)

a = Fc1ccc(CN(Cc2nc(-c3ccccc3)cs2)c2cccc(Oc3ccccc3)c2)cc1 [Compound 17d]
b = O=[N+]([O-])c1ccc(-c2csc(CN(Cc3ccc(F)cc3)c3ccccc3-c3ccccc3)n2)cc1
c = Fc1ccc(CN(Cc2nc3ccccc3o2)c2cccc(Oc3ccccc3)c2)cc1 [Compound 17g]
Order the entries above by descending IC50. Give the labels in the order specified. c, a, b

P = COc1ccc(N(Cc2ccc(F)cc2)Cc2nc(-c3ccc(C(F)(F)F)cc3)cs2)cc1OC
Q = COc1ccc(N(Cc2ccc(F)cc2)Cc2nc(-c3ccccc3[N+](=O)[O-])cs2)cc1OC
Parameter metric = IC50. Return the lower-valued option from P and Q . Mark your selection by writing its label. P
(P: 0.97 µM, Q: 6.36 µM)

Where do these numbers come from? They come from paper PMC6150381.
